molecular target: E3 ubiquitin-protein ligase XIAP (Homo sapiens) (UniProt P98170); assay: XIAP binders, primary screen, biophysical, small-molecule microarray, fluorescence 635 nm (AID 1181); details: small-molecule microarray binding, higher = more signal;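 also: score merges 667 nm emission and signal to noise over triplicate slides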
Sequence (P98170 whole entry, looked up): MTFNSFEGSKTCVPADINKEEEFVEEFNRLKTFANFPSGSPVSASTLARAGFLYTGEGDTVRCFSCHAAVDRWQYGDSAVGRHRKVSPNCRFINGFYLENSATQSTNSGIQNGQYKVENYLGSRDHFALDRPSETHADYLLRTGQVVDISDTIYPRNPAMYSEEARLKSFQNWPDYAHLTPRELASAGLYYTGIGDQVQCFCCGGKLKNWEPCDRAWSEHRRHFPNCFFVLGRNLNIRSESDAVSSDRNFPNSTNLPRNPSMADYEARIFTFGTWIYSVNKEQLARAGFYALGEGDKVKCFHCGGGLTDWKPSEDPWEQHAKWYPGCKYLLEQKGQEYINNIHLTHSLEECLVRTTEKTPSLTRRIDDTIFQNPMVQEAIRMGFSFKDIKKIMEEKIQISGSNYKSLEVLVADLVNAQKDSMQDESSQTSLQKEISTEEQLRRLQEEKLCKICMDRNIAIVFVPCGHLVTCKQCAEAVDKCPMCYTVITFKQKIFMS
assay.metric: composite z-score
Please reply with the number alone, leaving off any unit.

Short answer please: composite z-score, E3 ubiquitin-protein ligase XIAP (Homo sapiens) (UniProt P98170), entry CCCC=C(CCC)[C@@H](NS(=O)(=O)c1ccc(C(F)(F)F)cc1)c1ccc(-c2ccccc2)cc1
0.0264

// next record CCCNC(=O)[C@@H]1c2ccccc2C(=O)N(Cc2cc(F)cc(C(F)(F)F)c2)[C@H]1c1ccc(CO)cc1
-0.129

// next record CC[C@H]1C2=C3C(CC[C@H]4C(OC)OC[C@](C)([C@@H]34)N(C(=O)OC(C)(C)C)C2)C(CO)C1CO (some centres not stated)
0.26

// next record O=C1C[C@@](C(=O)NC2CC2)(c2ccc([N+](=O)[O-])cc2)[C@@H](c2ccc(CO)cc2I)N1CC12CC3CC(CC(C3)C1)C2
-0.095

// next record COc1ccc(-c2cc3c(c(-c4ccccc4)n2)[Si](C(C)C)(C(C)C)O[C@H]3c2ccccc2)cn1
0.113

// next record C=CCN1C(=O)[C@]2(O[C@H](CCn3cc(CCO)nn3)[C@@H]([Si](C)(C)c3ccc(OC)cc3)[C@@H]2C)c2cc(NC(=O)c3ccc(OC)cc3)ccc21
-0.104

// next record CO[C@H]1COC(=O)CC=C[C@H](C)[C@@H](OC)COC(=O)[C@H](Cc2ccccc2)NC(=O)CC=C[C@@H]1C
-0.031
